# TARGET OF ASSAY: MOR42-3 (Mus musculus)
# Sequence (E9PX47 1-334): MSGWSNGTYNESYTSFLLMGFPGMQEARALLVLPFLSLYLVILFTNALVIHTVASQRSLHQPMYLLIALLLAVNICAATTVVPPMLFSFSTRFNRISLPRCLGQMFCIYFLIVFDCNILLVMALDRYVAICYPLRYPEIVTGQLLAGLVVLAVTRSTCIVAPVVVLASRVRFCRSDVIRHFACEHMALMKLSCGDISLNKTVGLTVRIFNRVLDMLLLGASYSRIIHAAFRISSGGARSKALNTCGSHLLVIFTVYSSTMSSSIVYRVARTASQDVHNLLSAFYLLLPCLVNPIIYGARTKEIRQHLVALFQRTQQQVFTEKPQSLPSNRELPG
# PROTOCOL: CRE luciferase reporter assay in Hana3A cells
MEASURED PROPERTY: pEC50
Answers are plain numbers, as −log10 of the molar value.

Would you kindly share the measured pEC50 for O=C(O)CCCCCCCC(=O)O ?
4.53
